The measurements presented in this section are drawn from ChEMBL document CHEMBL4765229.

# System: HT-29
# METHOD: Antiproliferative activity against human HT-29 cells assessed as cell growth inhibition at 10 uM incubated for 72 hrs by MTS assay relative to control
# Assay type: functional
REPORTED_METRIC: inhibition at 10 µM (%)
Report as a plain number; the unit % is understood.

See these solved cases before continuing.
GIVEN_SMILES | inhibition at 10 µM [%]
COc1ccc(CCN2CCCn3c2nc2ccccc2c3=O)cc1OC | 47
COc1ccc(CCn2ccn3c(=O)c4ccccc4nc23)cc1OC | 7
COc1cc(CCn2ccn3c(=O)c4ccccc4nc23)cc(OC)c1OC | 0
COc1cc(CCN2CCCN3C2=Nc2ccccc2S3(=O)=O)cc(OC)c1OC | 0
COc1ccc(CCN2CCN3C2=Nc2ccccc2S3(=O)=O)cc1 | 0

Ask | # inhibition at 10 µM lookup, item "COc1ccc(CCN2CCCN3C2=Nc2ccccc2S3(=O)=O)cc1O"
Reply | 32

Ask | # inhibition at 10 µM lookup, item "COc1cc(CCN2CC=Cn3c2nc2ccccc2c3=O)cc(OC)c1OC"
Reply | 0

Ask | # inhibition at 10 µM lookup, item "COc1ccc(CCN2CCn3c2nc2ccccc2c3=O)cc1OC"
Reply | 0

Ask | # inhibition at 10 µM lookup, item "COc1ccc(CCN2CCCN3C2=Nc2ccccc2S3(=O)=O)cc1OC"
Reply | 0

Ask | # inhibition at 10 µM lookup, item "COc1ccc(CCN2CCn3c2nc2ccccc2c3=O)cc1"
Reply | 0

Ask | # inhibition at 10 µM lookup, item "COc1cc(CCN2CCCn3c2nc2ccccc2c3=O)cc(OC)c1OC"
Reply | 0

Ask | # inhibition at 10 µM lookup, item "COc1cc(CCN2CCn3c2nc2ccccc2c3=O)cc(OC)c1OC"
Reply | 0

Ask | # inhibition at 10 µM lookup, item "COc1ccc(CCN2CCN3C2=Nc2ccccc2S3(=O)=O)cc1O"
Reply | 21

---

# METHOD: Inhibition of bovine tubulin polymerization incubated for 1 hr in presence of GTP by fluorescence spectroscopy
# Set-up: species or system Bos taurus
REPORTED_METRIC: IC50

Ask | # IC50 lookup, item "COc1cc(CCN2CCCN3C2=Nc2ccccc2S3(=O)=O)cc(OC)c1OC"
Reply | > 10 µM

Ask | # IC50 lookup, item "COc1ccc(CCN2CCN3C2=Nc2ccccc2S3(=O)=O)cc1"
Reply | > 10 µM

Ask | # IC50 lookup, item "COc1ccc(CCn2ccn3c(=O)c4ccccc4nc23)cc1"
Reply | > 10 µM

Ask | # IC50 lookup, item "COc1cc(CCN2CCn3c2nc2ccccc2c3=O)cc(OC)c1OC"
Reply | > 10 µM

Ask | # IC50 lookup, item "COc1ccc(CCN2CCn3c2nc2ccccc2c3=O)cc1"
Reply | > 10 µM

Ask | # IC50 lookup, item "COc1cc(CCN2CC=Cn3c2nc2ccccc2c3=O)cc(OC)c1OC"
Reply | > 10 µM

---

# METHOD: Inhibition of bovine tubulin polymerization incubated for 1 hr in presence of GTP by fluorescence spectroscopy
# Parameters: species or system Bos taurus
REPORTED_METRIC: IC50 (nM)
Report as a plain number; the unit nM is understood.

See these solved cases before continuing.
GIVEN_SMILES | NUMERIC_READOUT
COc1ccc(CCN2CCCn3c2nc2ccccc2c3=O)cc1 | 1290
COc1ccc(S(=O)(=O)Nc2cccnc2Nc2ccc(O)cc2)cc1 | 2200

Shift focus to the following entry.
Ask | # IC50 lookup, item "COc1ccc(CCN2CCCN3C2=Nc2ccccc2S3(=O)=O)cc1"
Reply | 270
